Entries annotated with measured Inhibition rate against osteoclast formation, %
# Tested on: osteoclast formation
# test.summary: Inhibition rate of furan derivatives versus osteoclast formation (TRAP staining)
# Format: cell-based, mice
# conditions: 0.1 μM; TRAP-positive multinucleated cells, untreated control set as 100%
observation.type: Inhibition rate against osteoclast formation, % (%)

{"columns": ["compound", "obs.value"],
 "data": [
  ["O=C(O)c1ccc(COc2ccccc2Cl)o1", 0],
  ["COC(=O)c1ccc(CN(C)C)o1", 0],
  ["COC(=O)c1ccccc1NC(=O)c1ccc(COc2ccc(C)c(C)c2)o1", 0],
  ["CCC(C)NC(=O)c1ccc(COc2ccc(I)cc2)o1 (stereo not shown)", 0],
  ["O=C(Nc1ccc(F)cc1)c1ccc(COc2cccc(Cl)c2)o1", 0],
  ["O=C(Nc1ccc(F)c(F)c1)c1ccc(COc2ccc(I)cc2)o1", 0],
  ["COc1ccc(NC(=O)c2ccc(COc3cc(Cl)ccc3Cl)o2)c(OC)c1", 0],
  ["COC(=O)c1ccc(COc2ccc3c(c2)CCC3)o1", 0],
  ["COC(=O)c1ccc(COc2ccccc2[N+](=O)[O-])o1", 0],
  ["COC(=O)c1ccc(COc2ccccc2Cl)o1", 0],
  ["O=Cc1ccc(COC(=O)Nc2cccc(Cl)c2)o1", 0],
  ["CCCc1ccc(OCc2ccc(C(=O)Nc3ccc(OC)c(OC)c3)o2)cc1", 0],
  ["CCc1cccc(NC(=O)c2ccc(COc3ccc(F)cc3)o2)c1", 0],
  ["CC(C)(C)NC(=O)c1ccc(COCC(F)(F)F)o1", 0],
  ["CCCc1ccc(OCc2ccc(C(=O)Nc3ccc(F)cc3F)o2)c(OC)c1", 0],
  ["O=C(O)c1ccc(COc2cccc(Cl)c2)o1", 0],
  ["O=C(O)c1ccc(COc2ccccc2Br)o1", 0],
  ["C=CCc1ccc(OCc2ccc(C(=O)OC)o2)c(OC)c1", 0],
  ["COC(=O)c1ccc(COc2ccc(Cl)cc2)o1", 0],
  ["CC(C)(C)c1ccc(OCc2ccc(C(=O)NC3CCCCC3)o2)cc1", 0],
  ["Cc1ccc(F)c(NC(=O)c2ccc(COc3ccc(C)cc3[N+](=O)[O-])o2)c1", 0],
  ["O=Cc1ccc(COC(=O)C(c2ccccc2)(c2ccccc2)c2ccccc2)o1", 0],
  ["O=C(Nc1ccc(F)cc1F)c1ccc(COc2c(F)c(F)cc(F)c2F)o1", 0],
  ["O=C(Nc1cccc(Br)c1)c1ccc(COc2ccc(F)cc2)o1", 0],
  ["Cc1ccc(OCc2ccc(C(=O)Nc3ccc(F)c(F)c3)o2)cc1C", 0],
  ["O=Cc1ccc(COC(=O)Nc2ccc(Cl)c(Cl)c2)o1", 0],
  ["COC(=O)c1ccc(CNc2ccccc2)o1", 0],
  ["O=Cc1ccc(COC(=O)Nc2ccc(Br)cc2)o1", 0],
  ["O=C(O)c1ccc(CSCc2ccccc2)o1", 0],
  ["O=C(Nc1ccccc1[N+](=O)[O-])c1ccc(COc2ccccc2Cl)o1", 0],
  ["O=Cc1ccc(COC(=O)Nc2ccccc2Cl)o1", 0],
  ["COC(=O)c1ccc(COc2ccc(Cl)cc2Cl)o1", 0],
  ["Cc1cc(OCc2ccc(C(=O)O)o2)ccc1Cl", 0],
  ["O=Cc1ccc(COC(=O)Cc2ccccc2)o1", 0]
]}
